Value source: patent US20170052184A1

Biological target: T1, HCV bt-134-154 (Peptide 1, HCVc 134-154) (Hepatitis C virus (numbering per HCV-1), biotin (carboxy-terminal per; N-terminal per))
T1 peptide: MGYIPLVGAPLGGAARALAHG
Assay: EIA, captured mAb + biotin peptide
Listed here are binders together with their documented Reactivity (OD 492 nm).
measure: Reactivity (OD 492 nm)

# binder, measure, result
data = [
    ("HCV 208B-556 (antibody, V domains shown) VH: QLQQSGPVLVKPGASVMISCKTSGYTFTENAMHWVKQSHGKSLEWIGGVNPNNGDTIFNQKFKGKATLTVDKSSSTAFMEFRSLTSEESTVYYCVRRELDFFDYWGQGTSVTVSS VL: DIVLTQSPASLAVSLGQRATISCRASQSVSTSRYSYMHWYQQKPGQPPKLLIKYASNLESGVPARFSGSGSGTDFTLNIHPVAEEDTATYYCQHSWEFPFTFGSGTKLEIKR", "Reactivity (OD 492 nm)", "0.13 OD units"),
    ("HCV 208B-1024 (antibody, V domains shown) VH: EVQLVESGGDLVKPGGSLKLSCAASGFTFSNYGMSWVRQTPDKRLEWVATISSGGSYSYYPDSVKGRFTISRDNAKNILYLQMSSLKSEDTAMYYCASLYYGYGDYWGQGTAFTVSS VL: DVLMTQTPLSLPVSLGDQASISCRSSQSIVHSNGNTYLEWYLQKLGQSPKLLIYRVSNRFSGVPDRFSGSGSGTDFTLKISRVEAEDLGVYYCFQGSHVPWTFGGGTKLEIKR", "Reactivity (OD 492 nm)", "0.08 OD units"),
]
